experimentalDetails: Agilent ZORBAX Eclipse Plus C18, 100 × 2.1 mm, 1.8 µm, 25 °C, 0.3 mL/min, estimated dead time 0.73 min; A: water + 0.1% acetic acid; B: methanol; gradient (min/%B) 0/5 6/20 13/35 18/50 24/65 30/90 40/90
experimentalContext: stereoisomer not certain
measuredParameter: log10 of LC retention time (log10 of the value in min)
Use the decimal logarithm of LC retention time (min).

>>> observedresult("C[N+](C)(C)CC(=O)[O-]")
0.45
>>> observedresult("CC(C)(O)C1CCC(C)(C2C(O)CC3(C)C4CC(OC5OC(CO)C(O)C(O)C5O)C5C(C)(C)C(OC6OCC(O)C(O)C6O)CCC56CC46CCC23C)O1 (stereo unspecified)")
1.51
>>> observedresult("NC(=O)CC(N)C(=O)O (stereo unspecified)")
0.32
>>> observedresult("NC(Cc1ccccc1)C(=O)O (stereo unspecified)")
0.86
>>> observedresult("NCCCCC(N)C(=O)O (stereo unspecified)")
0.27

Go through the items and report each one's log10 of LC retention time.
1. C=C1CCCC2(C)CC3(O)OC(=O)C(C)=C3CC12 (stereo unspecified)
2. C[n+]1cccc(C(=O)[O-])c1
3. CCCCC=CC=CC=O
4. COC(=O)C1=COC(OC2OC(CO)C(O)C(O)C2O)C2C(CO)=CCC12 (stereo unspecified)

Response:
1. 1.48
2. 0.34
3. 1.36
4. 1.14

Parameter requested: log10 of LC retention time. Apply to each item below.
1. COc1ccc(-c2coc3cc(OC4OC(CO)C(O)C(O)C4O)ccc3c2=O)cc1O (stereo unspecified)
2. CSCCC(N)C(=O)O (stereo unspecified)

Response:
1. 1.25
2. 0.51

Could you report log10 of LC retention time for every entry in the following list?
1. NC(Cc1ccc(O)cc1)C(=O)O (stereo unspecified)
2. OCC1OC(OC2(CO)OC(CO)C(O)C2O)C(O)C(O)C1O (stereo unspecified)
3. COc1ccc(-c2coc3cc(O)ccc3c2=O)cc1O
4. CC(O)C(N)C(=O)O (stereo unspecified)
5. CC(C)CC(N)C(=O)O (stereo unspecified)
6. Nc1ncnc2c1ncn2C1OC(CO)C(O)C1O (stereo unspecified)
7. O=Cc1ccc(CO)o1

Response:
0.63
0.38
1.37
0.33
0.70
0.72
0.85

Record log10 of LC retention time for all entries; do not skip any.
1. O=C(C=Cc1ccc(O)c(O)c1)OC1CC(O)(C(=O)O)CC(O)C1O (stereo unspecified)
2. COc1cc(C=CC(=O)O)ccc1O
3. COc1ccc(-c2coc3cc(OC4OC(CO)C(O)C(O)C4O)ccc3c2=O)cc1 (stereo unspecified)

Response:
[0.95, 1.06, 1.33]

* * *

experimentalDetails: Agilent ZORBAX Eclipse Plus C18, 100 × 2.1 mm, 1.8 µm, 25 °C, 0.3 mL/min, estimated dead time 0.73 min; A: water + 0.1% acetic acid; B: methanol; gradient (min/%B) 0/5 6/20 13/35 18/50 24/65 30/90 40/90
experimentalContext: stereoisomer not certain
Assignment: determine reported LC retention time for the given molecules.
One number for each entry, in min.

For every item in the list below, what is its measured LC retention time?
1. OCC1OC(OCC2OC(OC3(CO)OC(CO)C(O)C3O)C(O)C(O)C2O)C(O)C(O)C1O (configuration not stated)
2. O=C(O)c1cccnc1
3. O=c1cc(-c2ccc(O)cc2)oc2cc(OC3OC(CO)C(O)C(O)C3O)cc(O)c12 (configuration not stated)

Response:
[2.54, 3.34, 18.2]

* * *

experimentalDetails: RP, Thermo Scientific Accucore C18, 150 × 2.1 mm, 2.6 µm, 24 °C, 0.28 mL/min, estimated dead time 0.83 min; A: 90% water + 10% acetonitrile + 10 mM ammonium acetate; B: 20% water + 80% methanol + 10 mM ammonium acetate; gradient (min/%B) 0/0 2.5/0 7.5/30 12.5/30 15/40 20/100 27.5/100
experimentalContext: stereoisomer not certain
measuredParameter: LC retention time (min)
Numbers only, in min.

// each molecule listed below needs its LC retention time
1. C1CCc2nnnn2CC1
2. CCCCNc1cc(C(=O)O)cc(S(N)(=O)=O)c1Oc1ccccc1
3. CC(C)c1c(CN(C)C(C)Cc2ccccc2)n(C)n(-c2ccccc2)c1=O (stereo unspecified)
4. CC12C=CC(=O)C=C1CCC1C2C(O)CC2(C)C1CCC2(O)C(=O)CO (stereo unspecified)
5. COc1cccc(C2(O)CCCCC2CN(C)C)c1 (stereo unspecified)
6. CNC(C)CCC=C(C)C (stereo unspecified)

Response:
1: 2.93; 2: 9.25; 3: 21.3; 4: 9.34; 5: 7.44; 6: 7.13

Batch: LC retention time for all items listed.
1. CC1NCCOC1c1ccccc1 (stereo unspecified)
2. Cc1cc(C)cc(NC(=O)Cc2ccc(OC(C)(C)C(=O)O)cc2)c1
3. CC(C)(N)Cc1ccccc1
4. C=CCc1ccccc1OCC(O)CNC(C)C (stereo unspecified)

Response:
[4.89, 9.1, 4.37, 10.1]

Report LC retention time for every entry below.
1. CC(=O)CC(c1ccccc1)c1c(O)c2ccccc2oc1=O (stereo unspecified)
2. CC(C(=O)O)c1cccc(C(=O)c2ccccc2)c1 (stereo unspecified)
3. CNC(C)Cc1ccc2c(c1)OCO2 (stereo unspecified)
4. Cc1ccc(C)c(OCCCC(C)(C)C(=O)O)c1
5. CNC(C)Cc1ccccc1OC (stereo unspecified)

Response:
1. 9.01
2. 8.05
3. 5.12
4. 17.9
5. 6.54

List reported LC retention time for each of these molecules:
1. CS(=O)(=O)Nc1ccc([N+](=O)[O-])cc1Oc1ccccc1
2. CC12C=CC(=O)C=C1CCC1C2C(=O)CC2(C)C1CCC2(O)C(=O)CO (stereo unspecified)
3. COC(=O)C1C(OC(=O)c2ccccc2)CC2CCC1N2C (stereo unspecified)
4. COCCc1ccc(OCC(O)CNC(C)C)cc1 (stereo unspecified)
5. CC(C(O)c1ccccc1)N(C)C (stereo unspecified)

Response:
17.2
9.4
8.59
7.33
3.27

# per-item lookup of LC retention time; items listed below
1. CCC(=O)C(CC(C)N(C)C)(c1ccccc1)c1ccccc1 (stereo unspecified)
2. CC(N)C(=O)c1ccccc1 (stereo unspecified)
3. C=CCOc1ccccc1OCC(O)CNC(C)C (stereo unspecified)
4. CCC1(O)CCC2C3CCC4=CC(=O)CCC4=C3C=CC21CC (stereo unspecified)
5. COc1ccc2c3c1OC1C(=O)CCC4(O)C(C2)N(C)CCC314 (stereo unspecified)
6. CC(Cc1ccccc1)N(C)Cc1ccccc1 (stereo unspecified)
7. CCN(CC)C(=O)c1cccnc1

Response:
[16.5, 8.59, 8.57, 18.8, 5.11, 17.8, 5.49]

The following molecules each have a reported value; give each one's LC retention time.
1. CNC(C)C(=O)c1ccc(C)cc1 (stereo unspecified)
2. CCNC(C)C(=O)c1ccc(C)cc1 (stereo unspecified)
3. CC(C)(C)NCC(O)COc1cccc2c1CC(O)C(O)C2 (stereo unspecified)
4. Cc1cc(=O)n(-c2ccccc2)n1C
5. Cc1ccccc1CC(C)N (stereo unspecified)

Response:
1: 6.27; 2: 6.99; 3: 4.97; 4: 5.43; 5: 6.42

Hi there! I need LC retention time for each item below, if you can.
1. N=C1NC(=O)C(c2ccccc2)O1 (stereo unspecified)
2. CCCCCC(C)N (stereo unspecified)

Response:
1: 3.65; 2: 6.13

Hi! Can you tell me LC retention time for each of these molecules?
1. CCC(C(=O)OCCN1CCOC(c2ccccc2)C1C)c1ccccc1 (stereo unspecified)
2. CC(N)Cc1ccc2c(c1)OCO2 (stereo unspecified)
3. CC(=O)Oc1c(C)cc(OCC(O)CNC(C)C)c(C)c1C (stereo unspecified)

Response:
1: 21.2; 2: 4.23; 3: 9.53

* * *

experimentalDetails: RP, Thermo Scientific Accucore C18, 150 × 2.1 mm, 2.6 µm, 24 °C, 0.28 mL/min, estimated dead time 0.83 min; A: 90% water + 10% acetonitrile + 10 mM ammonium acetate; B: 20% water + 80% methanol + 10 mM ammonium acetate; gradient (min/%B) 0/0 2.5/0 7.5/30 12.5/30 15/40 20/100 27.5/100
experimentalContext: stereoisomer not certain
Use 9 min as the dividing line for LC retention time, with the line itself on the Met side and lower values as Not met.

The examples below pair each entry with its known result.
>>> assignedclass("CNC(C)C(=O)c1ccccc1 (centres undefined)")
"Not met"
>>> assignedclass("CC(C)(C)NCC(O)COc1cccc2c1CCCC2=O (centres undefined)")
"Not met"
>>> assignedclass("COc1cc(Cc2cnc(N)nc2N)cc(OC)c1OC")
"Not met"
>>> assignedclass("CC(Cc1ccccc1)N(C)Cc1ccco1 (centres undefined)")
"Met"
>>> assignedclass("CN(C)C(=O)Oc1cc(OC(=O)N(C)C)cc(C(O)CNC(C)(C)C)c1 (centres undefined)")
"Not met"

Prompt: Has `CCC(=C(c1ccccc1)c1ccc(OCCN(C)C)cc1)c1ccccc1` a recorded LC retention time greater than or equal to 9 min?
Response: Met

Prompt: What would you report for CNC(C)Cc1ccccc1 (centres undefined) ?
Response: Not met

// data source = the RepoRT retention time repository (doi:10.1016/j.chroma.2015.03.063)
